From: the OPERA property sets (Mansouri et al. 2018)

Kindly state logP for each of the entries shown.
One number for each entry.

compound | logP
CN(c1ccccn1)S(=O)(=O)c1ccc(N)cc1 | 1.3
C=CC(=O)OCC | 1.32

Hi team, please reply with logP for each item in this list.
1. CCN(CC)C(=O)C(C)Oc1cccc2ccccc12 (configuration not stated)
2. COc1ccc(C(c2ccc(OC)cc2)C(F)(F)F)cc1
3. CC(=O)Nc1cccc(NC(C)=O)c1
4. CCCCCCCC(=O)OCC(=O)C1(O)CCC2C3CCC4=CC(=O)CCC4(C)C3C(O)CC21C (configuration not stated)

1: 3.36; 2: 4.76; 3: 0.5; 4: 5.49

Would you mind telling me what logP value was observed for CNc1ccccc1[N+](=O)[O-] ?
2.18
